Reference source for all entries: patent US20240067729A1

Quick list: koff per entry.
target: T1, human PD-L1, his tagged (hPD-L1-his) (human, UniProt Q9NZQ7 19-238, limits assumed); test: BLI (ForteBio Octet), hPD-L1-his
T1 construct: also called huPD-L1-His; recombinant human PD-L1; not shown: his tag
T1 sequence (Q9NZQ7 19-238 limits assumed): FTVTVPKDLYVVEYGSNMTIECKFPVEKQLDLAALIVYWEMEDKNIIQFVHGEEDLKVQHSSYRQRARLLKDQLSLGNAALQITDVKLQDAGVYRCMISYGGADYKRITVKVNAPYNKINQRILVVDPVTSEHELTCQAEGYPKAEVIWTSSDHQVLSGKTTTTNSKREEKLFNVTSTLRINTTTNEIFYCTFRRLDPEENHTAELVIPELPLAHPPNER

h769-tm3 (humanized 769-hIgG1 variant) (antibody, V domains shown) VH: EVQLVQSGAEVKKPGATVKISCKVSGFNIKDTYMHWVQQAPGKGLEWMGLIDPANDNTIYAEKFQGRVTITADTSTDTAYMELSSLRSEDTAVYYCAREGYGGSYGEGYWGQGTLVTVSS VL: EIVMTQSPPTLSLSPGERVTLSCRASQSVSNDLSWYQQKPGQAPRLLIYYASIRFTGIPARFSGSGSGTDFTLTISSLQPEDFAVYFCQQDYNSPWTFGQGTKVEIK = 0.000904 s⁻¹
h769-tm2 (humanized 769-hIgG1 variant) (antibody, V domains shown) VH: EVQLVQSGAEVKKPGATVKISCKVSGFNIKDTYMHWVQQAPGKGLEWMGLIDPANDNTIYAEKFQGRVTITADTSTDTAYMELSSLRSEDTAVYYCAREGYGGSYGEGYWGQGTLVTVSS VL: EIVMTQSPPTLSLSPGERVTLSCRASQSVSNDLSWYQQKPGQAPRLLIYYASIRFTGIPARFSGSGYGTDFTLTISSLQPEDFAVYYCQQDYNSPWTFGQGTKVEIK = 0.000818 s⁻¹
h769-IF3 (humanized 769-hIgG1 variant) (antibody, V domains shown) VH: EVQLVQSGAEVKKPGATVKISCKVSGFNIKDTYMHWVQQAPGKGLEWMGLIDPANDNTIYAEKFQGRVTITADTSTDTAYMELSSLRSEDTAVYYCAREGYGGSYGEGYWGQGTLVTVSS VL: EIVMTQSPPTLSLSPGERVTLSCRASQSVSNDLSWYQQKPGQAPRLLIYYASIRFTGIPARFSGSGSGTDFTLTISSLQPEDFAVYYCQQDYNSPWTFGQGTKVEIK = 0.000871 s⁻¹

Consider the additional binder presented here.
Return value of koff for input 769-hIgG1 (chimeric PAL769) (antibody, V domains shown) VH: EVQLQESGAELVKPGASVTLSCTASGFNIKDTYMHWVKQRPEQGLEWIGRIDPANDNTKYDPKFQDKATITADTSSDTAYLRLSSLTSEDTAVYYCAREGYGGSYGEGYWGQGTTLTVSS VL: SIVMTQTPKFLLVSAGDRVTITCKASQSVSNDVIWYQQKPGQSPKLLIYYASIRFTGVPDRFAGSGYGTDFTFTINTVQAEDLAVYFCQQDYNSPWTFGGGTKLEIK , no commentary. 0.000967 s⁻¹
